Each entry below carries its measured AC50, system: Adenosine receptor A1 (Homo sapiens). Further: assay procedure not described here.
Sequence (P30542 whole entry): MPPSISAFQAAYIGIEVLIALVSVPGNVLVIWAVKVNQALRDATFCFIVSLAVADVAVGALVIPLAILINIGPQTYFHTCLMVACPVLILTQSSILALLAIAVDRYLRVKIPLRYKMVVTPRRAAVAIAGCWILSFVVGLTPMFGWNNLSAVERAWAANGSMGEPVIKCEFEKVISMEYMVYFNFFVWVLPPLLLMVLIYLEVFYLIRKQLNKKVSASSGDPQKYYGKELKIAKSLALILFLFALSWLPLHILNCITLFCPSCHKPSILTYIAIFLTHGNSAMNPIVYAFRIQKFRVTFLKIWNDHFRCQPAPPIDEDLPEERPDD

Study these solved cases before continuing.
CC[C@@H]([C@H](C)O)n1ncn(-c2ccc(N3CCN(c4ccc(OC[C@@H]5CO[C@@](Cn6cncn6)(c6ccc(F)cc6F)C5)cc4)CC3)cc2)c1=O [POSACONAZOLE]
> 30 µM
CCOC(=O)c1c(C)cc2c(CO)n[nH]c(=O)c2c1C [OXAGRELATE]
25.9 µM
FC(F)(F)c1ccc(CNc2ccc(Cc3c[nH]c4ncc(Cl)cc34)cn2)cn1 [PEXIDARTINIB]
27.7 µM
OC[C@H]1O[C@@](CO)(O[C@H]2O[C@H](CO)[C@@H](O)[C@H](O)[C@H]2O)[C@@H](O)[C@@H]1O [SUCROSE]
> 30 µM
CN1C(C(=O)Nc2ccccn2)=C(O)c2ccccc2S1(=O)=O [PIROXICAM]
> 30 µM
C/C=C/C/C=C/CCC(=O)[C@H]1O[C@H]1C(N)=O [CERULENIN]
> 30 µM
CCCC(CCC)C(=O)O [VALPROIC ACID]
> 30 µM

Consider now this further compound.
Field request: AC50 | item: CC(C)(O)CNc1nc(Nc2ccnc(C(F)(F)F)c2)nc(-c2cccc(C(F)(F)F)n2)n1 [ENASIDENIB]
1.29 µM

====

Molecular target: Progesterone receptor (Homo sapiens, UniProt P06401); further: assay procedure not described here
Sequence (P06401 whole entry): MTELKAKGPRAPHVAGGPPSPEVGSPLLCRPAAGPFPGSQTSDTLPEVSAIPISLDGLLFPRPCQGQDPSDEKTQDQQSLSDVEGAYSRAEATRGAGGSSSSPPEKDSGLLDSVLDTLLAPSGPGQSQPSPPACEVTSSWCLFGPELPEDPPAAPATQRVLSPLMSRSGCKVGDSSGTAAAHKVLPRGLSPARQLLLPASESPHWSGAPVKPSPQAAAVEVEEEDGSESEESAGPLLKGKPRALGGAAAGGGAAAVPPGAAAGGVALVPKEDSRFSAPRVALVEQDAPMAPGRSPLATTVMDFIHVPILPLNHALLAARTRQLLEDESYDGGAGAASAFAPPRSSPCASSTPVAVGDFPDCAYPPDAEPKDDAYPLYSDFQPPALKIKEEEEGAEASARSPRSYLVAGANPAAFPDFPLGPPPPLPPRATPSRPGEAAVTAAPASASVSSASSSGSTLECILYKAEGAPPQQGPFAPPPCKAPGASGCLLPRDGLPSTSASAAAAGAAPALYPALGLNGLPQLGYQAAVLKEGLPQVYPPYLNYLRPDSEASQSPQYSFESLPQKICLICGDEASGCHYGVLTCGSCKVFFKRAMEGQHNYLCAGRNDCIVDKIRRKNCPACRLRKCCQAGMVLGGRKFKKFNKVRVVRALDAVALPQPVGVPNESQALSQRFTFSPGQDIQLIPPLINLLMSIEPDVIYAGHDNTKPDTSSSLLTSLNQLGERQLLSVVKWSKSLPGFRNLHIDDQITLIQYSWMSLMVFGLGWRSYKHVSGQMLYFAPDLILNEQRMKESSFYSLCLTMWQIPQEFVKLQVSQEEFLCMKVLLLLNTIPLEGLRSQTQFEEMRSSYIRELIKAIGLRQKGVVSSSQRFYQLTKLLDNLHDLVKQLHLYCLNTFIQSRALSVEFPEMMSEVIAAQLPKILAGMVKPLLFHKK
Format: functional
READOUT_LABEL: AC50

Solved cases below.
O=C1CN=C(c2ccccn2)c2cc(Br)ccc2N1 [BROMAZEPAM]
> 10 µM
Clc1ccc2c(N3CCN(CCCN4CCN(c5ccnc6cc(Cl)ccc56)CC4)CC3)ccnc2c1 [PIPERAQUINE]
> 30 µM
C=CC[C@@H]1/C=C(\C)C[C@H](C)C[C@H](OC)[C@H]2O[C@@](O)(C(=O)C(=O)N3CCCC[C@H]3C(=O)O[C@H](/C(C)=C/[C@@H]3CC[C@@H](O)[C@H](OC)C3)[C@H](C)[C@@H](O)CC1=O)[C@H](C)C[C@@H]2OC [TACROLIMUS ANHYDROUS]
> 30 µM
C[C@]12CC[C@@H]3c4ccc(O)cc4C[C@@H](CCCCCCCCC[S+]([O-])CCCC(F)(F)C(F)(F)F)[C@H]3[C@@H]1CC[C@@H]2O (some centres not stated) [FULVESTRANT]
3.6 µM
CC(C)[C@H](N)C(=O)OCC(CO)OCn1cnc2c(=O)nc(N)[nH]c21 (some centres not stated) [VALGANCICLOVIR]
> 30 µM
CC(C(=O)O)c1ccc2c(c1)[nH]c1ccc(Cl)cc12 (configuration not stated) [CARPROFEN]
> 30 µM

Give AC50 (Progesterone receptor (Homo sapiens, UniProt P06401)) of the following compound: C/C(=C\C(=O)OCCCCCCCCC(=O)O)C[C@@H]1OC[C@H](C[C@@H]2O[C@H]2[C@@H](C)[C@H](C)O)[C@@H](O)[C@H]1O [MUPIROCIN]
> 10 µM

====

Target: 3',5'-cyclic-AMP phosphodiesterase 4A (Homo sapiens); further: assay procedure not described here
Sequence (P27815 whole entry): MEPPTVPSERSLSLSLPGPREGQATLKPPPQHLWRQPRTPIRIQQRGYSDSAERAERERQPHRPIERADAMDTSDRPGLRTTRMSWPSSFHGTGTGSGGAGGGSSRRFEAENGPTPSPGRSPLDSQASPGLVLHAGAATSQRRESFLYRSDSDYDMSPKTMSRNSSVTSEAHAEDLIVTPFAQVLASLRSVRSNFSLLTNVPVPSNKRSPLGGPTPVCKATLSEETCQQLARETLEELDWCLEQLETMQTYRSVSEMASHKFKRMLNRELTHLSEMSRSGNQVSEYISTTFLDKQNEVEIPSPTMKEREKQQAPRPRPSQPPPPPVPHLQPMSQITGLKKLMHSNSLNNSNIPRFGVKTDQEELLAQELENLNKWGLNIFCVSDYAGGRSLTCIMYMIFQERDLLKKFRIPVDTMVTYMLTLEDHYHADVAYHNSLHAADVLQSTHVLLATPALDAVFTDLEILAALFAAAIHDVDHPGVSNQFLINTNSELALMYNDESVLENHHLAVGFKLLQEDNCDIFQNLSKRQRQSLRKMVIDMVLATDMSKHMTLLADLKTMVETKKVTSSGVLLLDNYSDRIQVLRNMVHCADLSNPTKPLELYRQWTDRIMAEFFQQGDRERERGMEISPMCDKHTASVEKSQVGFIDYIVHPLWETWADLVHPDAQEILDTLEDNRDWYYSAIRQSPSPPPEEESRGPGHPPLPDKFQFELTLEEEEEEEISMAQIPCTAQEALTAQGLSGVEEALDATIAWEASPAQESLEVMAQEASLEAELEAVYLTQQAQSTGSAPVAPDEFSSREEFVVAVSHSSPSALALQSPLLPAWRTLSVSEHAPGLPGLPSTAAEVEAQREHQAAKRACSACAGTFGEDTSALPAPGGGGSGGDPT
Format: functional
READOUT_LABEL: AC50

Solved entries (count: 3):
CC(CCc1ccccc1)NCC(O)c1ccc(O)c(C(N)=O)c1 (stereo not given)
> 30 µM
OC[C@@H](O)[C@@H](O)[C@H](O)[C@@H](O)CO
> 30 µM
CC1=CCC(C(C)(C)O)CC1O (stereo not given)
> 30 µM

// each listed molecule needs a value for AC50
1. Cc1ccccc1C(=O)Nc1ccc(C(=O)N2CCCC(N(C)C)c3ccccc32)cc1 (stereo not given)
2. NC(=O)OCC(O)COc1ccc(Cl)cc1 (stereo not given) [CHLORPHENESIN CARBAMATE]

1. > 30 µM
2. > 30 µM
